# survival rate per entry
# Test system: Candida albicans TIMM 1623
# Measurement Protocol: Antifungal activity test (in vivo), mouse systemic infection model
# Settings: 0.1 mg/kg s.c.; day 10

Observe how each entry below is paired with its result.
OC(Cn1cncn1)(Cn1cncn1)c1ccc(F)cc1F [FLCZ, Fluconazole, reference compound]	20
C[C@@H](N1CC=C(c2ccccn2)CC1)[C@](O)(Cn1cncn1)c1ccc(F)cc1F	40
C[C@@H](N1CC=C(c2ccc(Cl)cn2)CC1)[C@](O)(Cn1cncn1)c1ccc(F)cc1F	60

# input Query (compound): C[C@@H](N1CCC(c2ccccn2)CC1)[C@](O)(Cn1cncn1)c1ccc(F)cc1F ; field requested: survival rate
# output 20

Hello, the source for this data is patent US7973056B2, in case you need it.
